# Target of assay: Cathepsin B from bovine spleen (bovine, UniProt P07688 80-332)
# Test name: cell-based or functional assay
The star is where a group is joined. TNBS = trinitrobenzene sulphonic acid, N-terminal block, O=[N+]([O-])c1cc([N+](=O)[O-])c(*)c([N+](=O)[O-])c1; pNA = O=[N+]([O-])c1ccc(N*)cc1
Measurement type: Cathepsin B inhibition test, 2 mM peptide

{"columns": ["Binder", "Observed value"],
 "data": [
  ["H-YINR-OH (also: MGO-modified, site not given here) [MGO-modified H-YINR-OH]", 79.2],
  ["Ac-Phe-Thr-Lys-OH [Ac-FTK-OH]", 149],
  ["{TNBS}-Phe-Ala-Lys-pNA (also: MGO-modified, site not given here) [MGO-modified TNBS-FAK-pNA]", 122],
  ["Ac-Phe-Asp-Arg-OH [Ac-FDR-OH]", 85.6]
]}

(1) Ac-IFVTMLR-OH (also: MGO-modified, site not given here) [MGO-modified Ac-IFVTMLR-OH]
(2) H-Phe-Thr-Lys-OH [H-FTK-OH]
Problem: // compare measured Cathepsin B inhibition test, 2 mM peptide between 1 and 2 ; output the lower one Please reply using the label of the selected record.
Result: 1
